Experimental target: Protein A, native (Sigma P3838) (Staphylococcus aureus, UniProt P38507 37-477)
Assay protocol: MST; 25 C, in solution
Applied conditions: protein: native; label: 5'-fluorescein; predicted stem-loop
Observed property: Kd (nM)
Numbers only, in nM.

Binder	Test result
PA#2/8[S1-58] 5'-fluorescein (structured_DNA) DNA: ATACCAGCTTATTCAATTAGCAACATGAGGGGGATAGAGGGGGTGGGTTCTCTCGGCT	222

Here's the next entry for you.
Returns the measured Kd for the input binder. Input: ATACCAGCTTATTCAATTAGCAACATGAGGGGGATAGAGGGGG (structured_DNA) [PA#2/8[S1-43]] 214
